viability, T/C values, listed per item
- Tested on: 885724-159-R-J1-PDC KRAS PDC multicell spheroid viability
- Procedure Details: Anticancer human tumor 885724-159-R-J1-PDC patient-derived pancreatic adenocarcinoma cell line growth inhibition [KRAS2]
- Applied Conditions: second compound 3.16 µM; first compound 1 µM; active compounds read low
Report as a plain number; the unit % is understood.

Worked cases, answers included:
# Compound, viability, T/C, %
data = [
    ("O=C(c1cc(Cc2n[nH]c(=O)c3ccccc23)ccc1F)N1CCN(C(=O)C2CC2)CC1 + C=CC(=O)N1CCN(c2nc(OCC3CCCN3C)nc3c2CCN(c2cccc4cccc(C)c24)C3)CC1CC#N", 58),
    ("COc1cc2nccc(Oc3ccc(NC(=O)C4(C(=O)Nc5ccc(F)cc5)CC4)cc3)c2cc1OC + CC1OCC2(CCN(c3cnc(Sc4ccnc(N)c4Cl)c(N)n3)CC2)C1N", 67.7),
    ("CC(=O)OC12COC1CC(O)C1(C)C(=O)C(O)C3=C(C)C(OC(=O)C(O)C(NC(=O)OC(C)(C)C)c4ccccc4)CC(O)(C(OC(=O)c4ccccc4)C21)C3(C)C (stereo not given) + C=CC(=O)N1CCN(c2nc(=O)n(-c3c(C)ccnc3C(C)C)c3nc(-c4c(O)cccc4F)c(F)cc23)C(C)C1", 111),
    ("CCN1CCN(Cc2ccc(Nc3ncc(F)c(-c4cc(F)c5nc(C)n(C(C)C)c5c4)n3)nc2)CC1 + C=CC(=O)N1CCN(c2nc(=O)n(-c3c(C)ccnc3C(C)C)c3nc(-c4c(O)cccc4F)c(F)cc23)C(C)C1", 114),
]

API: the following record is the query input.
In: Can you look up the measured viability, T/C of O=C(c1cc(Cc2n[nH]c(=O)c3ccccc23)ccc1F)N1CCN(C(=O)C2CC2)CC1 + CNCc1ccccc1-c1csc(C(C)Nc2nc(C)nc3cc(OC)c(OC)cc23)c1 for me?
Out: 0.88

====

- Test system: 885724-159-R-J1-PDC KRAS PDC multicell spheroid viability
- Procedure Details: Anticancer human tumor 885724-159-R-J1-PDC cell line growth inhibition [KRAS2];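 also: spheroids exposed to agents for 7 days before readout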
- Applied Conditions: second compound 10 µM; first compound 1 µM; active compounds read low
Below, each entry is listed with its recorded viability, T/C.
Kindly answer with a numeric value in %, unit omitted.

Worked set:
# Compound, viability, T/C (%)
records = [
    ("COc1cc2nccc(Oc3ccc(NC(=O)C4(C(=O)Nc5ccc(F)cc5)CC4)cc3)c2cc1OC + C=CC(=O)N1CCN(c2nc(=O)n(-c3c(C)ccnc3C(C)C)c3nc(-c4c(O)cccc4F)c(F)cc23)C(C)C1", 86.2),
    ("CC1(C)CCC(CN2CCN(c3ccc(C(=O)NS(=O)(=O)c4ccc(NCC5CCOCC5)c([N+](=O)[O-])c4)c(Oc4cnc5[nH]ccc5c4)c3)CC2)=C(c2ccc(Cl)cc2)C1 + C=CC(=O)N1CCN(c2nc(=O)n(-c3c(C)ccnc3C(C)C)c3nc(-c4c(O)cccc4F)c(F)cc23)C(C)C1", 77.8),
]

In: Fill in the blank: the reported viability, T/C of O=C(c1cc(Cc2n[nH]c(=O)c3ccccc23)ccc1F)N1CCN(C(=O)C2CC2)CC1 + COc1cc2nc(C)nc(NC(C)c3cc(N)cc(C(F)(F)F)c3)c2cc1OC1CCOC1 is ____.
Out: 92.5

In: Could you tell me which viability, T/C is on file for CC(C)NCC(C(=O)N1CCN(c2ncnc3c2C(C)CC3O)CC1)c1ccc(Cl)cc1 (stereo not given) + C=CC(=O)N1CCN(c2nc(=O)n(-c3c(C)ccnc3C(C)C)c3nc(-c4c(O)cccc4F)c(F)cc23)C(C)C1 ?
Out: 11.5

In: Requested field: viability, T/C. Item: CC1OCC2(CCN(c3cnc(Sc4ccnc(N)c4Cl)c(N)n3)CC2)C1N (stereo not given) + COc1cc2nc(C)nc(NC(C)c3cc(N)cc(C(F)(F)F)c3)c2cc1OC1CCOC1
Out: 13.1

In: Query: viability, T/C; subject: COc1cc2nccc(Oc3ccc(NC(=O)C4(C(=O)Nc5ccc(F)cc5)CC4)cc3)c2cc1OC + CNCc1ccccc1-c1csc(C(C)Nc2nc(C)nc3cc(OC)c(OC)cc23)c1
Out: 0.18

====

- Test system: 885724-159-R-J1-PDC KRAS PDC multicell spheroid viability
- Procedure Details: Anticancer human tumor 885724-159-R-J1-PDC cell line growth inhibition [KRAS2];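 also: spheroids exposed to agents for 7 days before readout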
- Applied Conditions: second compound 3.16 µM; first compound 1 µM; active compounds read low
Reported viability, T/C by item:
Provide the reading as a plain figure in %.

# Compound, Observable, Result Number
rows = [
    ("CC1COCCN1c1cc(-c2ccnn2C)c2ccnc(-c3ccn[nH]3)c2n1 (stereo not given) + C=CC(=O)N1CCN(c2nc(=O)n(-c3c(C)ccnc3C(C)C)c3nc(-c4c(O)cccc4F)c(F)cc23)C(C)C1", "viability, T/C", 49.4),
    ("CC(=O)OC12COC1CC(O)C1(C)C(=O)C(O)C3=C(C)C(OC(=O)C(O)C(NC(=O)OC(C)(C)C)c4ccccc4)CC(O)(C(OC(=O)c4ccccc4)C21)C3(C)C (stereo not given) + COc1cc2nc(C)nc(NC(C)c3cc(N)cc(C(F)(F)F)c3)c2cc1OC1CCOC1", "viability, T/C", 119),
    ("O=C(c1cc(Cc2n[nH]c(=O)c3ccccc23)ccc1F)N1CCN(C(=O)C2CC2)CC1 + C=CC(=O)N1CCN(c2nc(=O)n(-c3c(C)ccnc3C(C)C)c3nc(-c4c(O)cccc4F)c(F)cc23)C(C)C1", "viability, T/C", 117),
    ("CC1COCCN1c1cc(-c2ccnn2C)c2ccnc(-c3ccn[nH]3)c2n1 (stereo not given) + CNCc1ccccc1-c1csc(C(C)Nc2nc(C)nc3cc(OC)c(OC)cc23)c1", "viability, T/C", 1.55),
]

In: Record lookup: for 885724-159-R-J1-PDC KRAS PDC multicell spheroid viability, what viability, T/C belongs to COc1cc(Nc2ncc3c(n2)-c2ccc(Cl)cc2C(c2c(F)cccc2OC)=NC3)ccc1C(=O)O + CNCc1ccccc1-c1csc(C(C)Nc2nc(C)nc3cc(OC)c(OC)cc23)c1 ?
Out: 1.16

====

- System: 885724-159-R-J1-PDC KRAS PDC multicell spheroid viability
- Procedure Details: Anticancer human tumor 885724-159-R-J1-PDC cell line growth inhibition [KRAS2]; active = viability on the fitted dose curve at most 10% of control; inactive = the rest;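 also: spheroids exposed to agents for 7 days before readout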
- Applied Conditions: second compound 3.16 µM; first compound 0.01 µM
Pick from active, inactive when you respond.

Before answering, review these 10 worked examples.
# Compound, Label Value
measured = [
    ("CC1COCCN1c1cc(-c2ccnn2C)c2ccnc(-c3ccn[nH]3)c2n1 (centres undefined) + C=CC(=O)N1CCN(c2nc(=O)n(-c3c(C)ccnc3C(C)C)c3nc(-c4c(O)cccc4F)c(F)cc23)C(C)C1", "inactive"),
    ("CCN1CCN(Cc2ccc(Nc3ncc(F)c(-c4cc(F)c5nc(C)n(C(C)C)c5c4)n3)nc2)CC1 + COc1cc2nc(C)nc(NC(C)c3cc(N)cc(C(F)(F)F)c3)c2cc1OC1CCOC1", "inactive"),
    ("Cn1ncnc1[C@H]1c2n[nH]c(=O)c3cc(F)cc(c23)N[C@@H]1c1ccc(F)cc1 + C=CC(=O)N1CCN(c2nc(OCC3CCCN3C)nc3c2CCN(c2cccc4cccc(C)c24)C3)CC1CC#N", "inactive"),
    ("CC(=O)Nc1cccc(-n2c(=O)n(C3CC3)c(=O)c3c(Nc4ccc(I)cc4F)n(C)c(=O)c(C)c32)c1 + COc1cc2nc(C)nc(NC(C)c3cc(N)cc(C(F)(F)F)c3)c2cc1OC1CCOC1", "inactive"),
    ("CC1COCCN1c1cc(-c2ccnn2C)c2ccnc(-c3ccn[nH]3)c2n1 (centres undefined) + C=CC(=O)N1CCN(c2nc(OCC3CCCN3C)nc3c2CCN(c2cccc4cccc(C)c24)C3)CC1CC#N", "inactive"),
    ("Cn1ncnc1[C@H]1c2n[nH]c(=O)c3cc(F)cc(c23)N[C@@H]1c1ccc(F)cc1 + CNCc1ccccc1-c1csc(C(C)Nc2nc(C)nc3cc(OC)c(OC)cc23)c1", "active"),
    ("CC(=O)OC12COC1CC(O)C1(C)C(=O)C(O)C3=C(C)C(OC(=O)C(O)C(NC(=O)OC(C)(C)C)c4ccccc4)CC(O)(C(OC(=O)c4ccccc4)C21)C3(C)C (centres undefined) + C=CC(=O)N1CCN(c2nc(=O)n(-c3c(C)ccnc3C(C)C)c3nc(-c4c(O)cccc4F)c(F)cc23)C(C)C1", "inactive"),
    ("Cn1ncnc1[C@H]1c2n[nH]c(=O)c3cc(F)cc(c23)N[C@@H]1c1ccc(F)cc1 + C=CC(=O)N1CCN(c2nc(=O)n(-c3c(C)ccnc3C(C)C)c3nc(-c4c(O)cccc4F)c(F)cc23)C(C)C1", "inactive"),
    ("CC1COCCN1c1cc(-c2ccnn2C)c2ccnc(-c3ccn[nH]3)c2n1 (centres undefined) + CC1OCC2(CCN(c3cnc(Sc4ccnc(N)c4Cl)c(N)n3)CC2)C1N", "inactive"),
    ("CC(=O)Nc1cccc(-n2c(=O)n(C3CC3)c(=O)c3c(Nc4ccc(I)cc4F)n(C)c(=O)c(C)c32)c1 + C=CC(=O)N1CCN(c2nc(OCC3CCCN3C)nc3c2CCN(c2cccc4cccc(C)c24)C3)CC1CC#N", "active"),
]

In: I would be grateful if you could indicate the recorded call for CC(=O)OC12COC1CC(O)C1(C)C(=O)C(O)C3=C(C)C(OC(=O)C(O)C(NC(=O)OC(C)(C)C)c4ccccc4)CC(O)(C(OC(=O)c4ccccc4)C21)C3(C)C (centres undefined) + CC1OCC2(CCN(c3cnc(Sc4ccnc(N)c4Cl)c(N)n3)CC2)C1N .
Out: inactive
